# assay target: Potassium voltage-gated channel subfamily KQT member 4 (Homo sapiens, UniProt P56696)
# Sequence (P56696 whole entry): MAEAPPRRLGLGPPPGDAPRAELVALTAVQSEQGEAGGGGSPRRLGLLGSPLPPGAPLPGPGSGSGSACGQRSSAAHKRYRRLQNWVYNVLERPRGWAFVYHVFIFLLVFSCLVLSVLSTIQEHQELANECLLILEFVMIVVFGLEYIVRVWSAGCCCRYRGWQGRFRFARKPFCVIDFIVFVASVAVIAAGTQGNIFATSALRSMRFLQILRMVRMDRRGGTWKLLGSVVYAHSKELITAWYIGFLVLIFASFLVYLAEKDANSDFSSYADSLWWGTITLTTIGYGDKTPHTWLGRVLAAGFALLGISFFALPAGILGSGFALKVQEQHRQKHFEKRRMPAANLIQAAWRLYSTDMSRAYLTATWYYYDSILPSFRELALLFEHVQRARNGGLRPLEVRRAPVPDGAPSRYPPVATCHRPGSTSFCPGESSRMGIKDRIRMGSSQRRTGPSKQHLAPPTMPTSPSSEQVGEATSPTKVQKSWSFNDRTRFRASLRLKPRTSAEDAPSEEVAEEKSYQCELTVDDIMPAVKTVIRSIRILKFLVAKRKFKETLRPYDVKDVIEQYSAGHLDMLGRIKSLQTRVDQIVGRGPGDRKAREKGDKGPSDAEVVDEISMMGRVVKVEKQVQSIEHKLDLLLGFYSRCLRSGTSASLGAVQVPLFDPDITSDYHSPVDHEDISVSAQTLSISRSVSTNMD
# procedure text: Activation of KCNQ4 channel expressed in CHO cells assessed as depolarization-induced […] after 3 mins by patch clamp assay relative to control
endpoint: EC50

Measured EC50, COc1ccc(-c2csc(NC(=O)[C@H]3CCCCN3S(=O)(=O)c3ccc(C)cc3)n2)cc1 : > 30 µM

====

# procedure text: Intrinsic clearance in human liver microsomes
# Type: ADME, Microsome
# condition details: read-out: CLH
endpoint: CLint scaled (mL/min/kg)
Report the value in mL/min/kg with no unit label.

INSERT INTO measurements (chemical_string, endpoint, result_number) VALUES
  ('O=C(Nc1nc(-c2ccc(OC(F)(F)F)cc2)cs1)[C@H]1CCCCN1S(=O)(=O)c1ccc(OC(F)(F)F)cc1', 'CLint scaled', 7.9);

Here's the next entry for you.
Measured CLint scaled, COc1ccc(-c2csc(NC(=O)[C@H]3CCCCN3S(=O)(=O)c3ccc(C)cc3)n2)cc1 : 18
